tested on: MEK5; construct: gene MAP2K5; settings: concentration: 1 μM, replicates: in singlicate; n = 1
Rule: %Inh below 30% gives Yes, anything at or above gives No.

Some entries whose results are on file:
- FC(F)(F)c1ccc(-c2nn3ncccc3c2-c2ccnc(Nc3cccc(C(F)(F)F)c3)n2)cc1 [GW828205]: Yes
- Fc1cccc(COc2ccc(Nc3ncnc4nn5ccccc5c34)cc2Cl)c1 [GW689066]: No
- Cl.O=S(=O)(c1cccc(F)c1)c1ccc(Nc2ncnc3cc(Br)sc23)cc1Cl [GSK306886]: Yes
- CC(=O)Nc1n[nH]c2ncc(-c3ccccc3)cc12 [SB-548492]: No
- Cc1cccc(-c2nc(Nc3ccc4[nH]nnc4c3)c3ccccc3n2)n1 [GW867587]: Yes

stdin: I wonder whether O=C(Nc1ccccc1F)NC1CCN(c2ccnc(Nc3ccc(F)cc3)n2)C1 (stereo not shown) [GSK1379722] has %Inh below 30%. Can you tell?
stdout: Yes

stdin: I wonder whether Fc1cccc(COc2ccc(Nc3ncnc4sc(-c5ccc[nH]5)cc34)cc2Cl)c1 [GW707818] has %Inh below 30%. Can you tell?
stdout: Yes

stdin: I wonder whether CNc1nccc(-c2c(-c3ccc(F)cc3)ncn2CCCN2CCOCC2)n1 [SB-222516] has %Inh below 30%. Can you tell?
stdout: No

###

system: JNK2; construct: gene MAPK9;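 also: kd values determined as follow-up on hits from a single-replicate KINOMEscan panel screen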
Observable: pKd
Give bare numbers, as −log10 of the molar value.

Reported pKd for CN1CCC(n2cnc(-c3ccc(F)cc3)c2-c2ccnc(NC3CCNCC3)n2)CC1 [SB-229482] was 6.77

###

test system: RSK3(Kin.Dom.2-C-terminal); construct: gene RPS6KA2; conditions: concentration: 1 μM, replicates: in singlicate; n = 1
Observable: %Inh (%)
One number for each entry, in %.

Some molecules with recorded %Inh:
• Nc1n[nH]c2nnc(-c3ccccc3)cc12 = 24
• CN1c2ccc(-c3ccc(C(=O)NCCO)cc3)cc2-c2[nH]ncc2S1(=O)=O = 35

Kindly review the next molecule as well.
Reported %Inh for "c1ccc(-c2ccc3c(-c4ccnc(Nc5ccc6c(c5)OCCO6)n4)cnn3n2)cc1" was 3

###

For each record, write down the corresponding %Inh.
test system: MST1; construct: gene STK4; details: concentration: 1 μM, replicates: in singlicate; n = 1
One number for each entry, in %.

Some compounds with recorded %Inh:
• c1ccc(-c2ccc3c(-c4ccnc(Nc5ccc6c(c5)OCCO6)n4)cnn3n2)cc1 = 23
• Cl.Fc1ccccc1COc1ccc(Nc2ncnc3ccc(-c4nnc(C(F)(F)F)o4)cc23)cc1Cl = 0

For every item below, please supply its %Inh.
1. Cl.c1ccc(Cn2ncc3cc(Nc4ncnc5ccccc45)ccc32)cc1
2. COc1ccc(NC(=O)c2ccc(-c3cc(-c4nnc(C)o4)ccc3C)cc2)cc1

stdout:
[0, 0]

For every item below, please supply its %Inh.
1. Cn1cc(-c2ccc3c(c2)CCN3C(=O)Cc2cccc(C(F)(F)F)c2)c2c(N)ncnc21
2. CCc1nc(-c2cccc(C)c2)c(-c2ccnc(NC(=O)c3ccccc3)c2)s1
3. Nc1nc(-c2ccccn2)c(-c2ccnc3ccccc23)s1

stdout:
14
11
0

For every item below, please supply its %Inh.
1. Nc1nc(-c2ccc3c(N)n[nH]c3c2)cc(N2CCCCC2)n1
2. COc1ccc(Nc2nccc(N3CCC(NC(=O)Nc4ccc5c(c4)OCO5)C3)n2)cc1 (stereo not drawn)
3. CSc1ccc(NC2=C(c3ccccc3Cl)C(=O)NC2=O)cc1
4. Clc1cccc(-c2nc(Nc3ccncc3)c3ccccc3n2)c1
5. Cc1ccc(O)cc1Nc1cc(C(F)(F)F)nc2ccc(-c3ccncc3)cc12
6. Cl.c1ccc(Cn2ccc3cc(Nc4ncnc5ccccc45)ccc32)cc1
7. Cl.Cl.c1ccc(-c2cc3ccncc3cc2OC2CCNCC2)cc1
8. CN1c2ccc(-c3ccc(C(=O)NCCO)cc3)cc2-c2[nH]ncc2S1(=O)=O

stdout:
[0, 6, 6, 27, 0, 0, 21, 5]
